Assay Procedure: chemical genetic growth profiling, strain panel (AID 1159580);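 also: tested at 20 µM; growth read once vehicle control cultures reached saturation at 30 °C; 1 = growth at the plate median or of vehicle wells; lower values mean less growth of the strain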
Conditions: S. cerevisiae deletion strains, growth OD, locus YER155C, strain BEM2 (second series)
The campaign covered roughly 5,500 compounds. About 2,000 (36%) were called active. Roughly 18% stayed inconclusive and do not appear here. Rule as the data show it: active = normalized growth mostly below about 0.91 (no sharp cut-off); inconclusive = no clear call, values can overlap the other calls; inactive = mostly above about 0.92. The list shows a part of the results.
Outcomes you can answer with include only these: y = active, n = inactive

What classification did `OCc1ccccc1O[C@@H]1O[C@H](CO)[C@@H](O)[C@H](O)[C@H]1O` end up with in this test?
n

---
What classification did CC(=O)O[C@]1(C(C)=O)CCC2C3C[C@H](C)C4=CC(=O)CC[C@]4(C)C3CC[C@@]21C (stereo not given in full) end up with in this test?
n

What classification did `COc1ccc2cc1Oc1ccc(cc1)C[C@H]1c3c(cc4c(c3Oc3cc5c(cc3OC)CCN(C)[C@@H]5C2)OCO4)CCN1C` end up with in this test?
n

What classification did `COC(=O)COc1cc(Cl)c(Cl)cc1Cl` end up with in this test?
n

What classification did `COc1ccc2cc1Oc1ccc(cc1)C[C@H]1c3cc(c(OC)cc3CCN1C)Oc1c(OC)c(OC)cc3c1[C@H](C2)N(C)CC3` end up with in this test?
n

What classification did `N=c1nc(N2CCCCC2)cc(N)n1O` end up with in this test?
n

What classification did CC1(C)S[C@@H]2[C@H](NC(=O)[C@H](NC(=O)N3CCNC3=O)c3ccccc3)C(=O)N2C1C(=O)O (stereo not given in full) end up with in this test?
n

What classification did `COc1c2c(c(CC=C(C)C)c3oc(=O)c(-c4ccc(O)cc4)c(O)c13)OC(C)(C)C=C2` end up with in this test?
y

What classification did CC(=O)O[C@]1(C(C)=O)CCC2C3C=C(C)C4=CC(=O)CCC4(C)C3CCC21C (stereo not given in full) end up with in this test?
y

What classification did `CCCCOc1ccc(CC(=O)NO)cc1` end up with in this test?
n

====

Assay Procedure: chemical genetic growth profiling, strain panel (AID 1159580)
Conditions: S. cerevisiae deletion strains, growth OD, locus YBR160W, strain CDC28, hits give low values
The whole screen tested about 5,500 compounds, of which about 2,000 (36%) were called active. Inconclusive results (about 18%) are left out. The list shows a part of the results.
Measured Attribute: normalized growth

Recorded normalized growth for `C/C(=N/NC(N)=S)c1ccccn1` , please?
0.985 (inactive)

Recorded normalized growth for `O=C(Oc1cc(Cl)c(Cl)cc1Cl)C1c2ccccc2Oc2ccccc21` , please?
0.94 (inactive)

Recorded normalized growth for `N#C/C(=N/Nc1ccccc1Cl)S(=O)(=O)c1ccc(Cl)cc1` , please?
0.969 (inactive)

Recorded normalized growth for `O=C(Nc1c(Br)c(C2CC2)nn1-c1ccccc1)C(Cl)(Cl)Cl` , please?
0.92 (inactive)

Recorded normalized growth for `Cn1cncc1S(=O)(=O)/C(C#N)=C/c1ccccc1Sc1ccc(Cl)cc1` , please?
0.983 (inactive)

---
Recorded normalized growth for `Cc1c(C(=O)N2CCCCC2)cc(-c2ccccc2)n1-c1ccccc1` , please?
0.959 (inactive)

Recorded normalized growth for `Cc1c(Cl)cccc1NC(=S)N1CCCN(c2nc3ccc(Cl)cc3s2)CC1` , please?
0.978 (inactive)

Recorded normalized growth for `O=C(Nc1cc(Cl)cc(Cl)c1)Nc1cc(-c2cccs2)[nH]n1` , please?
0.959 (inactive)

Recorded normalized growth for `CC(C)(C)C1=NN(c2nc3ccc(Cl)cc3s2)C(=O)C1` , please?
0.111 (active)

Recorded normalized growth for `Cc1c(Cl)cccc1NC(=S)N1CCCN(c2ccc(C(F)(F)F)cc2[N+](=O)[O-])CC1` , please?
0.994 (inactive)

Recorded normalized growth for `S=C(Nc1cc(-c2cccs2)[nH]n1)Nc1ccccc1Cl` , please?
0.943 (inactive)

====

Quick reference for normalized growth among some compounds
Assay Procedure: chemical genetic growth profiling, strain panel (AID 1159580)
Conditions: S. cerevisiae deletion strains, growth OD, locus YLR221C, strain rsa3, hits give low values
Hit rate of the full screen: of about 5,500 compounds, about 2,000 (36%) were called active. Roughly 18% stayed inconclusive and do not appear here. Some of the results follow.
Lab note: write the figure by itself, no unit.

Example results:
Recorded normalized growth for `C=CCc1ccc2c(c1)OCO2` , please?
1.06

Recorded normalized growth for NC[C@@H]1O[C@H](O[C@@H]2[C@@H](CO)OC(O[C@@H]3[C@@H](O)[C@H](N)C[C@H](N)[C@H]3OC3O[C@H](CN)[C@@H](O)[C@H](O)[C@H]3N)[C@@H]2O)[C@H](N)[C@@H](O)[C@@H]1O (stereo partly specified) , please?
1.04

Recorded normalized growth for `O=[N+]([O-])O[C@H]1CO[C@H]2[C@@H]1OC[C@H]2O[N+](=O)[O-]` , please?
0.995

Recorded normalized growth for `OCCN(CCO)c1nc(N2CCCCC2)c2nc(N(CCO)CCO)nc(N3CCCCC3)c2n1` , please?
1.02

---
Recorded normalized growth for O=C1CC(c2ccc(O)c(O)c2)Oc2cc(O)cc(O)c21 (stereo unspecified) , please?
0.998

Recorded normalized growth for `c1ccc(CN(CC2=NCCN2)c2ccccc2)cc1` , please?
1.01

Recorded normalized growth for `c1ccc(CC2=NCCN2)cc1` , please?
0.997

Recorded normalized growth for CCCCCC(C)N (stereo unspecified) , please?
1.03

Recorded normalized growth for `N=c1nc(N2CCCCC2)cc(N)n1O` , please?
0.948

Recorded normalized growth for `C[N+](C)(C)CC(=O)[O-]` , please?
1

Recorded normalized growth for COc1ccc(C2CC(=O)c3ccc(OC)cc3O2)cc1 (stereo unspecified) , please?
0.899

====

Assay Procedure: chemical genetic growth profiling, strain panel (AID 1159580)
Conditions: S. cerevisiae deletion strains, growth OD, locus YDR159W, strain sac3, hits give low values
Among all 5,500 compounds or so, about 2,000 (36%) were called active. Not shown: some 18% with an inconclusive outcome. The list shows a part of the results.
// returns N unless normalized growth is strictly below 1, in which case Y

// below: answered compounds
hey, is normalized growth for `COc1cccc([C@]2(O)CCCC[C@H]2CN(C)C)c1` lower than 1 or not?
Y

hey, is normalized growth for `CCCCCCCCCCCCCCCCOP(=O)([O-])OCC[N+](C)(C)C` lower than 1 or not?
Y

hey, is normalized growth for `CCSC(=N)N` lower than 1 or not?
N

Next:
hey, is normalized growth for `CCCCCCCC/C=C/CCCCCCCCOP(=O)([O-])OCC[N+](C)(C)C` lower than 1 or not?
Y

====

Assay Procedure: chemical genetic growth profiling, strain panel (AID 1159580);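 also: tested at 20 µM; growth read once vehicle control cultures reached saturation at 30 °C; 1 = growth at the plate median or of vehicle wells; lower values mean less growth of the strain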
Conditions: S. cerevisiae deletion strains, growth OD, locus YGR252W, strain gcn5, hits give low values
About 2,000 (36%) of roughly 5,500 compounds were called active. Roughly 18% stayed inconclusive and do not appear here. Some of the results follow.
Measured Attribute: normalized growth

Recorded normalized growth for `OC(CCN1CCCCC1)(c1ccccc1)c1ccccc1` , please?
1.01 (inactive)

Recorded normalized growth for Cc1ccc(C(=O)C(C)CN2CCCCC2)cc1 (stereo not drawn) , please?
0.987 (inactive)

Recorded normalized growth for `c1ccc(CC2=NCCN2)cc1` , please?
0.898 (inactive)

---
Recorded normalized growth for `CCCCOc1ccc(C(=O)CCN2CCCCC2)cc1` , please?
0.402 (active)

====

Assay Procedure: chemical genetic growth profiling, strain panel (AID 1159580);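 also: tested at 20 µM; growth read once vehicle control cultures reached saturation at 30 °C; 1 = growth at the plate median or of vehicle wells; lower values mean less growth of the strain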
Conditions: S. cerevisiae deletion strains, growth OD, locus YLR357W, strain rsc2, hits give low values
The whole screen tested about 5,500 compounds, of which about 2,000 (36%) were called active. Inconclusive results (about 18%) are left out. Some of the results follow.
Measured Attribute: normalized growth
Lab note: write the figure by itself, no unit.

Example results:
Recorded normalized growth for `O=c1ccc2ccccc2o1` , please?
1.04

Recorded normalized growth for CCCCCC(C)N (stereo not given) , please?
1.05

Recorded normalized growth for `O=c1ccc2cc(O)c(O)cc2o1` , please?
0.994

---
Recorded normalized growth for `CC(=O)OCC(CCn1cnc2cnc(N)nc21)COC(C)=O` , please?
0.969

Recorded normalized growth for `C[C@@H](N)CO` , please?
0.954

====

Assay Procedure: chemical genetic growth profiling, strain panel (AID 1159580);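 also: tested at 20 µM; growth read once vehicle control cultures reached saturation at 30 °C; 1 = growth at the plate median or of vehicle wells; lower values mean less growth of the strain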
Conditions: S. cerevisiae deletion strains, growth OD, locus YNL020C, strain ARK1, hits give low values
Among all 5,500 compounds or so, about 2,000 (36%) were called active. Another 18% or so got no clear call; they are omitted. The list shows a part of the results.
Quick reference for normalized growth among some compounds
Lab note: write the figure by itself, no unit.

Example results:
Recorded normalized growth for `O=C(Oc1cc(Cl)c(Cl)cc1Cl)C1c2ccccc2Oc2ccccc21` , please?
0.986

Recorded normalized growth for `O=C(Nc1c(Br)c(C2CC2)nn1-c1ccccc1)C(Cl)(Cl)Cl` , please?
0.878

Recorded normalized growth for `O=[N+]([O-])c1cc(C(F)(F)F)ccc1-n1ccc(-c2cccs2)n1` , please?
0.861

Recorded normalized growth for `NCCCN=c1ccc2c3c1c(O)c1c(O)ccc(=O)c1c3[nH]n2CCNCCO` , please?
0.992

Recorded normalized growth for `N#C/C(=N/Nc1ccccc1Cl)S(=O)(=O)c1ccc(Cl)cc1` , please?
0.828

Recorded normalized growth for `CC1=CC(=O)C(CCOCCC2=CC(=O)C(C)=CC2=O)=CC1=O` , please?
0.959

Recorded normalized growth for `O=C(C=C(O)c1ccc(Br)cc1)C(=O)Nc1ccccc1` , please?
0.109

Recorded normalized growth for `Cc1c(Cl)cccc1NC(=S)N1CCCN(c2nc3ccc(Cl)cc3s2)CC1` , please?
0.909

Recorded normalized growth for `O=C(Nc1cc(Cl)cc(Cl)c1)Nc1cc(-c2cccs2)[nH]n1` , please?
0.854

Recorded normalized growth for `NC(N)=Nc1nc(-c2cc(Cl)sc2Cl)cs1` , please?
0.96

---
Recorded normalized growth for `O=C(Nc1cc(Cl)cc(Cl)c1)Nc1cc(-c2ccco2)[nH]n1` , please?
0.3

Recorded normalized growth for `CC(C)(C)C1=NN(c2nc3ccc(Cl)cc3s2)C(=O)C1` , please?
0.107

Recorded normalized growth for CCC(C)c1ccccc1NC(=O)c1cc2cccc([N+](=O)[O-])c2[nH]1 (centres undefined) , please?
0.905

Recorded normalized growth for `C/C(=N/NC(N)=S)c1ccccn1` , please?
0.917
